targetOrTestSystem: T1, recombinant hIL-18Rα extracellular domain (human, UniProt Q13478 22-329, biotin label (selection) or fluorescent probe (single-clone FACS), sites not given)
T1 construct: extracellular domain; also called hIL-18Rα ECD; hIL-18Rα-ECD
T1 sequence (looked up): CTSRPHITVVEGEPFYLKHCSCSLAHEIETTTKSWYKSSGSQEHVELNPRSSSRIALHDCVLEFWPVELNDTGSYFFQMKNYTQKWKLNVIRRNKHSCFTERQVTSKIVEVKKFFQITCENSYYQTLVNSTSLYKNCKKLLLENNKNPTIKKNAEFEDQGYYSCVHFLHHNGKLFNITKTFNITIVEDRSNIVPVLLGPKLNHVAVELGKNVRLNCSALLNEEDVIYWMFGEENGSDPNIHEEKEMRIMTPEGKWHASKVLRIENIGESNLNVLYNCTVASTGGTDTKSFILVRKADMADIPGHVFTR
testName: single-clone FACS, yeast display, 10 nM labelled hIL-18Rα ECD
measurementType: % of fluorescence positive cells (%)
Dear colleague, please return just the value in %, with no unit written.

Below, each entry is followed by its recorded % of fluorescence positive cells result.
IL-18 variant polypeptide M4 (ligand) YFPKLKSKLSVIRNLNDQVLFIDQGNRPLFEDMTDSDCRDNAPRTIFIISMYKWSGVRGMAVTISVKCEKISTLSCENKIISFKEMNPPDVIKDTKSDIIFFQFSVPGHDNKMQFESSSYEGYFLACEKERDLFKLILKKEDELGDRSIMFTVQNED ... 44.9
IL-18 variant polypeptide M13 (ligand) YFPKLKSKLSVIRNLNDQVLFIDQGNRPLFEDMTDSDCRDNAPRTIFIISMYKQSIWRGMAVTISVKCEKISTLSCENKIISFKEMNPPDNIKDTKSDIIFFQRSVPGHDNKMQFESSSYEGYFLACEKERDLFKLILKKEDELGDRSIMFTVQNED ... 96.4
IL-18 variant polypeptide MM1 (ligand) YFPKLKSKLSVIRNLNDQVLFIDQGNRPLFEDMTDSDCRDNAPRTIFIISMYKLSTQRGMAVTISVKCEKISTLSCENKIISFKEMNPPDVIKDTKSDIIFFQRSVPGHDNKMQFESSSYEGYFLACEKERDLFKLILKKEDELGDRSIMFTVQNED ... 91.6
IL-18 variant polypeptide M37 (ligand) YFPKLGSKLSVIRNLNDQVLFIDQGNRPLFEDMTDSDCRDNAPRTIFIISMYKQSVWRGMAVTISVKCEKISTLSCENKIISFKEMNPPDNIKDTKSDIIFFQRSVPGHDNKMQFESSSYEGYFLACEKERDLFKLILKKEDELGDRSIMFTVQNED ... 95.4
IL-18 variant polypeptide M14 (ligand) YFNKLKSKLSVIRNLNDQVLFIDQGNRPLFEDMTDSDCRDNAPRTIFIISMYKPSSSRGMAVTISVKCEKISTLSCENKIISFKEMNPPDRIKDTKSDIIFFQASVPGHDNKMQFESSSYEGYFLACEKERDLFKLILKKEDELGDRSIMFTVQNED ... 88.3

Input line: Quick one: % of fluorescence positive cells for SEQ ID NO 108 (ligand) YFPKLGSKLSVIRNLNDQVLFIDQGNRPLFEDMTDSDCRDNAPRTIFIISMYKQSHYRGMAVTISVKCEKISTLSCENKIISFKEMNPPDNIKDTKSDIIFFQRSVPGHDNKMQFESSSYEGYFLACEKERDLFKLILKKEDELGDRSIMFTVQNED ?
Output line: 1.08

Input line: Param item: SEQ ID NO 18 (ligand) YLPKLRSKLSVIRNLNDQVLFIDQGNRPLFEDMTDSDCRDNAPRTIFIISMYKWSTSRGMAVTISVKCEKISTLSCENKIISFKEMNPPDSIKDTKSDIIFFQSSVPGHDNKMQFESSSYEGYFLACEKERDLFKLILKKEDELGDRSIMFTVQKED
Output line: 92

Data provenance: patent US20260092093A1
